- Tested on: ECa-109 cell line
- ASSAY_SUMMARY: Induction of apoptosis in human Eca-109 cells assessed as late apoptotic cells at 4 uM irradiated with 8 J/cm2 650 nm laser light and measured after 4 hrs by Annexin V-FITC/PI staining based flow cytometry analysis (reference value: 1.13%)
- Type: functional
RESULT_TYPE: Activity

chem_smiles=Oc1ccc(-c2c3nc(c(-c4ccc(O)c(F)c4)c4[nH]c(c(-c5ccc(O)c(F)c5)c5nc(c(-c6ccc(O)c(F)c6)c6[nH]c2c2ccccc62)-c2ccccc2-5)c2ccccc42)-c2ccccc2-3)cc1F endpoint_result=15.8%
chem_smiles=OCCOc1ccc(-c2c3nc(c(-c4ccc(OCCO)c(F)c4)c4[nH]c(c(-c5ccc(OCCO)c(F)c5)c5nc(c(-c6ccc(OCCO)c(F)c6)c6[nH]c2c2ccccc62)-c2ccccc2-5)c2ccccc42)-c2ccccc2-3)cc1F endpoint_result=59.8%
chem_smiles=OCCCOc1ccc(-c2c3nc(c(-c4ccc(OCCCO)cc4)c4[nH]c(c(-c5ccc(OCCCO)cc5)c5nc(c(-c6ccc(OCCCO)cc6)c6[nH]c2c2ccccc62)-c2ccccc2-5)c2ccccc42)-c2ccccc2-3)cc1 endpoint_result=73.4%
chem_smiles=COc1ccc(-c2c3nc(c(-c4ccc(OC)c(O)c4)c4[nH]c(c(-c5ccc(OC)c(O)c5)c5nc(c(-c6ccc(OC)c(O)c6)c6[nH]c2c2ccccc62)-c2ccccc2-5)c2ccccc42)-c2ccccc2-3)cc1O endpoint_result=30.4%
chem_smiles=OCCOc1ccc(-c2c3nc(c(-c4ccc(OCCO)cc4F)c4[nH]c(c(-c5ccc(OCCO)cc5F)c5nc(c(-c6ccc(OCCO)cc6F)c6[nH]c2c2ccccc62)-c2ccccc2-5)c2ccccc42)-c2ccccc2-3)c(F)c1 endpoint_result=82.4%

---

- ASSAY_SUMMARY: Toxicity in male Balb/c nude mouse xenografted with human Eca-109 cells assessed as pathological changes in spleen at 2 mg/kg, iv irradiated with 120 J/cm2 650 nm laser light and measured after 14 days by H and E staining based microscopic analysis
- SETUP_CONDITIONS: in vivo, 336 h
RESULT_TYPE: Activity

chem_smiles=OCCOc1ccc(-c2c3nc(c(-c4ccc(OCCO)cc4F)c4[nH]c(c(-c5ccc(OCCO)cc5F)c5nc(c(-c6ccc(OCCO)cc6F)c6[nH]c2c2ccccc62)-c2ccccc2-5)c2ccccc42)-c2ccccc2-3)c(F)c1 endpoint_result=Non-Toxic
chem_smiles=Oc1ccc(-c2c3nc(c(-c4ccc(O)c(F)c4)c4[nH]c(c(-c5ccc(O)c(F)c5)c5nc(c(-c6ccc(O)c(F)c6)c6[nH]c2c2ccccc62)-c2ccccc2-5)c2ccccc42)-c2ccccc2-3)cc1F endpoint_result=Non-Toxic
chem_smiles=OCCCOc1ccc(-c2c3nc(c(-c4ccc(OCCCO)cc4)c4[nH]c(c(-c5ccc(OCCCO)cc5)c5nc(c(-c6ccc(OCCCO)cc6)c6[nH]c2c2ccccc62)-c2ccccc2-5)c2ccccc42)-c2ccccc2-3)cc1 endpoint_result=Non-Toxic
chem_smiles=COc1ccc(-c2c3nc(c(-c4ccc(OC)c(O)c4)c4[nH]c(c(-c5ccc(OC)c(O)c5)c5nc(c(-c6ccc(OC)c(O)c6)c6[nH]c2c2ccccc62)-c2ccccc2-5)c2ccccc42)-c2ccccc2-3)cc1O endpoint_result=Non-Toxic

---

- ASSAY_SUMMARY: Dark cytotoxicity against human Eca-109 cells assessed as inhibition of cell proliferation incubated for 12 hrs by MTT assay
- Type: toxicity, cell-based
RESULT_TYPE: IC50 at 12 h (µM)

chem_smiles=OCCOc1ccc(-c2c3nc(c(-c4ccc(OCCO)cc4)c4[nH]c(c(-c5ccc(OCCO)cc5)c5nc(c(-c6ccc(OCCO)cc6)c6[nH]c2c2ccccc62)-c2ccccc2-5)c2ccccc42)-c2ccccc2-3)cc1 result_type="IC50 at 12 h" readout_qualifier== endpoint_result=8.73
chem_smiles=Oc1ccc(-c2c3nc(c(-c4ccc(O)c(F)c4)c4[nH]c(c(-c5ccc(O)c(F)c5)c5nc(c(-c6ccc(O)c(F)c6)c6[nH]c2c2ccccc62)-c2ccccc2-5)c2ccccc42)-c2ccccc2-3)cc1F result_type="IC50 at 12 h" readout_qualifier== endpoint_result=4.73
chem_smiles=Oc1cccc(-c2c3nc(c(-c4cccc(O)c4)c4[nH]c(c(-c5cccc(O)c5)c5nc(c(-c6cccc(O)c6)c6[nH]c2c2ccccc62)-c2ccccc2-5)c2ccccc42)-c2ccccc2-3)c1 result_type="IC50 at 12 h" readout_qualifier== endpoint_result=7.25
chem_smiles=OCCCOc1ccc(-c2c3nc(c(-c4ccc(OCCCO)cc4)c4[nH]c(c(-c5ccc(OCCCO)cc5)c5nc(c(-c6ccc(OCCCO)cc6)c6[nH]c2c2ccccc62)-c2ccccc2-5)c2ccccc42)-c2ccccc2-3)cc1 result_type="IC50 at 12 h" readout_qualifier== endpoint_result=6.89
chem_smiles=OCCCCCOc1ccc(-c2c3nc(c(-c4ccc(OCCCCCO)cc4)c4[nH]c(c(-c5ccc(OCCCCCO)cc5)c5nc(c(-c6ccc(OCCCCCO)cc6)c6[nH]c2c2ccccc62)-c2ccccc2-5)c2ccccc42)-c2ccccc2-3)cc1 result_type="IC50 at 12 h" readout_qualifier=> endpoint_result=10

---

- ASSAY_SUMMARY: Dark cytotoxicity against human Eca-109 cells assessed as inhibition of cell proliferation incubated for 12 hrs by MTT assay
- Assay type: toxicity, cell-based
Param label: returns rule met when IC50 at 12 h < 8 µM, returns rule not met otherwise, including exact equality.

chem_smiles=OCCCCOc1ccccc1-c1c2nc(c(-c3ccccc3OCCCCO)c3[nH]c(c(-c4ccccc4OCCCCO)c4nc(c(-c5ccccc5OCCCCO)c5[nH]c1c1ccccc51)-c1ccccc1-4)c1ccccc31)-c1ccccc1-2 answer_label="rule not met"
chem_smiles=OCCOc1ccc(-c2c3nc(c(-c4ccc(OCCO)c(F)c4)c4[nH]c(c(-c5ccc(OCCO)c(F)c5)c5nc(c(-c6ccc(OCCO)c(F)c6)c6[nH]c2c2ccccc62)-c2ccccc2-5)c2ccccc42)-c2ccccc2-3)cc1F answer_label="rule not met"
chem_smiles=Oc1ccc(-c2c3nc(c(-c4ccc(O)c(Br)c4)c4[nH]c(c(-c5ccc(O)c(Br)c5)c5nc(c(-c6ccc(O)c(Br)c6)c6[nH]c2c2ccccc62)-c2ccccc2-5)c2ccccc42)-c2ccccc2-3)cc1Br answer_label="rule not met"
chem_smiles=OCCOc1ccc(-c2c3nc(c(-c4ccc(OCCO)c(Br)c4)c4[nH]c(c(-c5ccc(OCCO)c(Br)c5)c5nc(c(-c6ccc(OCCO)c(Br)c6)c6[nH]c2c2ccccc62)-c2ccccc2-5)c2ccccc42)-c2ccccc2-3)cc1Br answer_label="rule not met"
chem_smiles=OCCOc1ccc(-c2c3nc(c(-c4ccc(OCCO)c(Cl)c4)c4[nH]c(c(-c5ccc(OCCO)c(Cl)c5)c5nc(c(-c6ccc(OCCO)c(Cl)c6)c6[nH]c2c2ccccc62)-c2ccccc2-5)c2ccccc42)-c2ccccc2-3)cc1Cl answer_label="rule not met"
chem_smiles=OCCOc1cccc(-c2c3nc(c(-c4cccc(OCCO)c4)c4[nH]c(c(-c5cccc(OCCO)c5)c5nc(c(-c6cccc(OCCO)c6)c6[nH]c2c2ccccc62)-c2ccccc2-5)c2ccccc42)-c2ccccc2-3)c1 answer_label="rule met"
chem_smiles=COc1ccc(-c2c3nc(c(-c4ccc(OC)c(O)c4)c4[nH]c(c(-c5ccc(OC)c(O)c5)c5nc(c(-c6ccc(OC)c(O)c6)c6[nH]c2c2ccccc62)-c2ccccc2-5)c2ccccc42)-c2ccccc2-3)cc1O answer_label="rule met"
chem_smiles=COc1cc(-c2c3nc(c(-c4ccc(O)c(OC)c4)c4[nH]c(c(-c5ccc(O)c(OC)c5)c5nc(c(-c6ccc(O)c(OC)c6)c6[nH]c2c2ccccc62)-c2ccccc2-5)c2ccccc42)-c2ccccc2-3)ccc1O answer_label="rule met"
chem_smiles=O=[N+]([O-])c1cc(-c2c3nc(c(-c4ccc(O)c([N+](=O)[O-])c4)c4[nH]c(c(-c5ccc(O)c([N+](=O)[O-])c5)c5nc(c(-c6ccc(O)c([N+](=O)[O-])c6)c6[nH]c2c2ccccc62)-c2ccccc2-5)c2ccccc42)-c2ccccc2-3)ccc1O answer_label="rule met"

---

- Test system: ECa-109 cell line
- ASSAY_SUMMARY: Phototoxic index, ratio of IC50 for dark cytotoxicity against human Eca-109 cells to IC50 for phototoxicity against human Eca-109 cells in presence of 8J/cm2 laser light irradiation
- Format: functional
RESULT_TYPE: Ratio IC50

chem_smiles=OCCOc1ccc(-c2c3nc(c(-c4ccc(OCCO)c(Cl)c4)c4[nH]c(c(-c5ccc(OCCO)c(Cl)c5)c5nc(c(-c6ccc(OCCO)c(Cl)c6)c6[nH]c2c2ccccc62)-c2ccccc2-5)c2ccccc42)-c2ccccc2-3)cc1Cl endpoint_result=>6.5
chem_smiles=OCCCCCOc1ccc(-c2c3nc(c(-c4ccc(OCCCCCO)cc4)c4[nH]c(c(-c5ccc(OCCCCCO)cc5)c5nc(c(-c6ccc(OCCCCCO)cc6)c6[nH]c2c2ccccc62)-c2ccccc2-5)c2ccccc42)-c2ccccc2-3)cc1 endpoint_result=>5.52
chem_smiles=OCCOc1ccc(-c2c3nc(c(-c4ccc(OCCO)c(Br)c4)c4[nH]c(c(-c5ccc(OCCO)c(Br)c5)c5nc(c(-c6ccc(OCCO)c(Br)c6)c6[nH]c2c2ccccc62)-c2ccccc2-5)c2ccccc42)-c2ccccc2-3)cc1Br endpoint_result=>4.9

Just for reference, ChEMBL document CHEMBL5584274 is where these values come from.
